# Ki listing for each entry below
Target: CRF1 receptors (Homo sapiens, UniProt P34998)
Construct: endogenous in cells; host or cells: IMR-32 cells, transformed with 2.5 µM 5'-bromo-2'-deoxyuridine for 10 days; membrane preparation
Experiment: CRF1 receptor radioligand binding assay ([125I]-oCRF competition, IMR-32 cell membranes)
Details: IMR-32 cell membranes, [125I]-oCRF 100 pM; read-out: Ki (CRF-1R)

Could you share which Ki value was measured for CCN(CCC1CC1)Cc1c(C(F)(F)F)nc2n1CCCN2c1c(C)cc(C)cc1C ? < 1000 nM

Could you share which Ki value was measured for C=CCN(CC=C)Cc1c(C(F)(F)F)nc2n(-c3ccc(C(C)C)cc3Br)c3ccccc3n12 ? < 1000 nM

Could you share which Ki value was measured for CCCN(Cc1c(C(F)(F)F)nc2n(-c3c(C)cc(C)cc3C)c3ccccc3n12)CC1CCC1 ? < 100 nM

Could you share which Ki value was measured for C=C(C)CN(CC)Cc1c(C(F)(F)F)nc2n1CCCN2c1c(C)cc(C)cc1C ? < 100 nM

###

Molecular target: CRF1 receptors (Homo sapiens, UniProt P34998)
Construct: endogenous in cells; host or cells: IMR-32 cells, transformed with 2.5 µM 5'-bromo-2'-deoxyuridine for 10 days; membrane preparation
Sequence (P34998 24-415): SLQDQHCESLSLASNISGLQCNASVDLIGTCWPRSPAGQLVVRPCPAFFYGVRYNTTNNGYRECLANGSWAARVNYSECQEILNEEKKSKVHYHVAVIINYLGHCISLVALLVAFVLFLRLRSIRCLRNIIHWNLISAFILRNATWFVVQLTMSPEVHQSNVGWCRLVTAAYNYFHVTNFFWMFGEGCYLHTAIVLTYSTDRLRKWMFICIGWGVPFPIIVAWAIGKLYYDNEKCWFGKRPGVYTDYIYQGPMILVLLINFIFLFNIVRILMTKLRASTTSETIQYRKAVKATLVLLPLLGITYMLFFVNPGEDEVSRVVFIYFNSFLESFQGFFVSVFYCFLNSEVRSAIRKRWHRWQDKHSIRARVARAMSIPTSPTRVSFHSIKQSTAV
Experiment: CRF1 receptor radioligand binding assay ([125I]-oCRF competition, IMR-32 cell membranes)
Details: IMR-32 cell membranes, [125I]-oCRF 100 pM; read-out: Ki (CRF-1R)
Description: CRF1 receptor antagonists, by occupying the same receptors, blocks the accessibility of the receptors to CRF, a hypothalamic factor mediating body's responses to physiological and psychological stress. […] Radioligand binding assays. […] IC50 values for oCRF and test compounds were calculated by nonlinear regression using a one-site binding curve (GraphPad Prism).
pKi: −log10 of the molar value.
# pKi listing for each entry below

Could you share which pKi value was measured for CCc1nc2n(-c3c(C)cc(C)cc3C)c(Cl)cn2c1C(=O)N(CC)CC [Example 293] ? > 6.00

Could you share which pKi value was measured for CCc1nc2n(-c3c(C)cc(C)cc3C)c(Cl)cn2c1C(=O)N1CC(C)CC(C)C1 (stereo not shown) [Example 300] ? > 7.00

Could you share which pKi value was measured for Cc1cc(C)c(-n2c(Cl)cn3c(CN(CCC4CC4)CCC(F)(F)F)c(C(F)(F)F)nc23)c(C)c1 [Example 330] ? > 8.00

###

Molecular target: CRF1 receptors (Homo sapiens, UniProt P34998)
Construct: endogenous in cells; host or cells: IMR-32 cells, transformed with 2.5 µM 5'-bromo-2'-deoxyuridine for 10 days; membrane preparation
Assay: CRF1 receptor radioligand binding assay ([125I]-oCRF competition, IMR-32 cell membranes)
Conditions: IMR-32 cell membranes, [125I]-oCRF 100 pM; read-out: Ki (CRF-1R)
# Ki listing for each entry below

Solved cases below.
molecule | value-type | observed-result
C=CCN(CC=C)Cc1c(C(F)(F)F)nc2n(-c3c(C)cc(C)cc3C)c(Cl)cn12 [Example 345] | Ki | < 10 nM
CCN(Cc1c(C(F)(F)F)nc2n1CCCN2c1c(C)cc(C)cc1Cl)CC1CCC1 [Example 137] | Ki | < 1000 nM
Cc1cc(C)c(N2CCCn3c2nc(C(F)(F)F)c3CN(CCC(F)(F)F)Cc2ccc(F)cc2)c(Cl)c1 [Example 127] | Ki | < 1000 nM

Could you share which Ki value was measured for C=CCN(CC=C)C(=O)c1c(CC)nc2n1CCN2c1c(C)cc(C)cc1C [Example 22] ? < 10000 nM

Could you share which Ki value was measured for Cc1cc(C)c(N2CCCn3c2nc(C(F)(F)F)c3CN2CCCCC2C)c(Cl)c1 (stereo not drawn) [Example 100] ? < 1000 nM

Could you share which Ki value was measured for CCN(CCC1CC1)Cc1c(C(F)(F)F)nc2n(-c3ccc(C(C)C)cc3Br)c3ccccc3n12 [Example 207] ? < 10000 nM

Could you share which Ki value was measured for CCCN(Cc1c(CC)nc2n(-c3c(C)cc(C)cc3C)c3ccccc3n12)CC1CC1 [Example 147] ? < 100 nM

Could you share which Ki value was measured for C=CCN(CC=C)Cc1c(C(F)(F)F)nc2n1CCCN2c1c(C)cc(C)cc1Cl [Example 103] ? < 100 nM

Could you share which Ki value was measured for CCc1nc2n(c1C(=O)N(CC1CC1)CC(F)(F)F)CCN2c1c(C)cc(Cl)cc1Cl [Example 30] ? < 100 nM

Could you share which Ki value was measured for Cc1cc(C)c(N2CCCn3c2nc(C(F)(F)F)c3CN(CCC(F)(F)F)Cc2ccccc2)c(C)c1 [Example 86] ? < 1000 nM

Could you share which Ki value was measured for Cc1cc(C)c(N2CCCn3c2nc(C(F)(F)F)c3CN2CC=CCC2)c(C)c1 [Example 60] ? < 1000 nM

Could you share which Ki value was measured for Cc1cc(C)c(-n2c3ncccc3n3c(CN(CC4CC4)CC4CC4)c(C(F)(F)F)nc23)c(C)c1 [Example 214] ? < 100 nM

###

Molecular target: CRF1 receptors (Homo sapiens, UniProt P34998)
Construct: endogenous in cells; host or cells: IMR-32 cells, transformed with 2.5 µM 5'-bromo-2'-deoxyuridine for 10 days; membrane preparation
Test: CRF1 receptor radioligand binding assay ([125I]-oCRF competition, IMR-32 cell membranes)
Conditions: IMR-32 cell membranes, [125I]-oCRF 100 pM; read-out: Ki (CRF-1R)
value-type: Ki

molecule | Ki
Cc1cc(C)c(N2CCCn3c2nc(C(F)(F)F)c3CN(CC2CC2)CC(F)(F)C(F)(F)F)c(Cl)c1 [Example 115] | < 100 nM

Could you share which Ki value was measured for Cc1cc(C)c(-n2c(Cl)cn3c(CN(CCC(F)(F)F)Cc4ccc(Cl)cc4)c(C(F)(F)F)nc23)c(C)c1 [Example 336] ? < 10 nM

Could you share which Ki value was measured for CCCN(CCC(F)(F)F)Cc1c(C(F)(F)F)nc2n(-c3c(C)cc(C)cc3C)c3ccccc3n12 [Example 157] ? < 100 nM

Could you share which Ki value was measured for Cc1cc(C)c(N2CCCn3c2nc(C(F)(F)F)c3CN2CCCCC2C)c(C)c1 (stereo not drawn) [Example 63] ? < 1000 nM

Could you share which Ki value was measured for CCCCN(Cc1ccccc1)Cc1c(C(F)(F)F)nc2n(-c3c(C)cc(C)cc3C)c3ncccc3n12 [Example 235] ? < 10000 nM

Could you share which Ki value was measured for CCCN(Cc1c(C(F)(F)F)nc2n(-c3c(C)cc(C)cc3C)c3ccccc3n12)CC1CC1 [Example 148] ? < 100 nM

Could you share which Ki value was measured for CCc1nc2n(c1C(=O)N(CCC1CC1)CCC(F)(F)F)CCN2c1c(C)cc(C)cc1C [Example 17] ? < 1000 nM

Could you share which Ki value was measured for C=CCN(CC=C)Cc1c(C(F)(F)F)nc2n(-c3c(C)cc(C)cc3C)c3ncccc3n12 [Example 219] ? < 1000 nM

Could you share which Ki value was measured for CCc1nc2n(c1C(=O)N(CC)CC1CC1)CCN2c1ccc(C(C)C)cc1Br [Example 40] ? < 10000 nM

###

# Ki listing for each entry below
Target: CRF1 receptors (Homo sapiens)
Construct: endogenous in cells; host or cells: IMR-32 cells, transformed with 2.5 µM 5'-bromo-2'-deoxyuridine for 10 days; membrane preparation
Test: CRF1 receptor radioligand binding assay ([125I]-oCRF competition, IMR-32 cell membranes)
Settings: IMR-32 cell membranes, [125I]-oCRF 100 pM; read-out: Ki (CRF-1R)

Solved cases below.
smiles-structure | system-name | Ki
CCCN(Cc1c(C(F)(F)F)nc2n(-c3c(C)cc(C)cc3C)c3ccccc3n12)CC(F)(F)F | CRF1 receptors (Homo sapiens) | < 100 nM
CCCN(CC1CC1)C(=O)c1c(C(F)(F)F)nc2n(-c3c(C)cc(C)cc3C)c3ccccc3n12 | CRF1 receptors (Homo sapiens) | < 10000 nM
Cc1cc(C)c(N2CCCn3c2nc(C(F)(F)F)c3CN2CCCCC2)c(Cl)c1 | CRF1 receptors (Homo sapiens) | < 1000 nM
Cc1cc(C)c(-n2c3ncccc3n3c(CN(C)Cc4ccccc4)c(C(F)(F)F)nc23)c(C)c1 | CRF1 receptors (Homo sapiens) | < 1000 nM
CCCN(Cc1ccc([N+](=O)[O-])cc1)Cc1c(C(F)(F)F)nc2n(-c3c(C)cc(C)cc3C)c(Cl)cn12 | CRF1 receptors (Homo sapiens) | < 1000 nM
CCCN(CC1CC1)C(=O)c1c(C)nc2n1CCN2c1c(C)cc(C)cc1C | CRF1 receptors (Homo sapiens) | < 1000 nM

Could you share which Ki value was measured for CCCN(CC1CC1)C(=O)c1c(C)nc2n(-c3ccc(Cl)cc3Cl)c3ccccc3n12 ? < 10000 nM

Could you share which Ki value was measured for CCCN(Cc1c(CC)nc2n(-c3c(C)cc(C)cc3C)c3ccc(F)cc3n12)CC1CC1 ? < 1000 nM

Could you share which Ki value was measured for CCN(CCC1CC1)Cc1c(C(F)(F)F)nc2n(-c3c(C)cc(C)cc3C)c3ncccc3n12 ? < 1000 nM

Could you share which Ki value was measured for CCCN(Cc1c(C(F)(F)F)nc2n1CCCN2c1c(C)cc(C)cc1Cl)CC(F)(F)C(F)(F)F ? < 1000 nM

Could you share which Ki value was measured for CCCN(CC1CC1)C(=O)c1c(C)nc2n(-c3c(C)cc(C)cc3C)c3ccc(F)cc3n12 ? < 10000 nM

Could you share which Ki value was measured for CCCN(Cc1c(C(F)(F)F)nc2n(-c3c(C)cc(C)cc3C)c(Cl)cn12)CC(F)(F)C(F)(F)F ? < 1000 nM
